# test_system: UniProt P02768
# procedure_text: Equilibrium dissociation constant for the interaction between the compound and serum albumin
# Assay type: ADME
# stated_conditions: read-out: KD2
Response field label: string, one of yes (1) (Kd strictly below 300 µM) or no (0).

Reference set, count: 3
{"compound": "Cc1cccc(C)c1OCC(=O)N[C@@H](Cc1ccccc1)[C@@H](O)C[C@H](Cc1ccccc1)NC(=O)[C@H](C(C)C)N1CCCNC1=O", "class_name": "yes (1)"}
{"compound": "CC(C)CN(C[C@@H](O)[C@H](Cc1ccccc1)NC(=O)O[C@H]1CCOC1)S(=O)(=O)c1ccc(N)cc1", "class_name": "no (0)"}
{"compound": "Cc1c(O)cccc1C(=O)N[C@@H](CSc1ccccc1)[C@H](O)CN1C[C@H]2CCCC[C@H]2C[C@H]1C(=O)NC(C)(C)C", "class_name": "yes (1)"}

For this compound, is Kd lower than 300 µM? CC(=O)O[C@@]12CO[C@@H]1C[C@H](O)[C@@]1(C)C(=O)[C@H](O)C3=C(C)[C@@H](OC(=O)[C@H](O)[C@@H](NC(=O)OC(C)(C)C)c4ccccc4)C[C@@](O)([C@@H](OC(=O)c4ccccc4)[C@H]21)C3(C)C.O.O.O
no (0)

----------
# test_system: Albumin (Homo sapiens)
# Sequence (P02768 whole entry): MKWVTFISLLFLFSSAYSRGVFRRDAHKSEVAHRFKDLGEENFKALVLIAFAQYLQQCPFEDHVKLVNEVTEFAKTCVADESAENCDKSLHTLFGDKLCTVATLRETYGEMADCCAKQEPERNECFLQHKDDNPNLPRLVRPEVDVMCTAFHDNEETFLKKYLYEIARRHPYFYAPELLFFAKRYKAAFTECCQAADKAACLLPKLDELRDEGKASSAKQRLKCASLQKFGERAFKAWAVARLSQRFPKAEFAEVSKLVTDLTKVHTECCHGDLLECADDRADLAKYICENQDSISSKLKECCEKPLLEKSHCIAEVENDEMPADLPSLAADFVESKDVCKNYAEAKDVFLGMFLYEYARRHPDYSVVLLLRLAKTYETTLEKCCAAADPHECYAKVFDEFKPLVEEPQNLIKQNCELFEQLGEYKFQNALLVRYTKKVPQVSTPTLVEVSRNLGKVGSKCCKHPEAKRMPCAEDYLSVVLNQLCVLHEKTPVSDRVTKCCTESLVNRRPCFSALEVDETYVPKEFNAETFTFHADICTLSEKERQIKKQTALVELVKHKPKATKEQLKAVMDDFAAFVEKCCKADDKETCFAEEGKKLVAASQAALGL
# procedure_text: Equilibrium dissociation constant for the interaction between the compound and serum albumin
# Format: ADME
# stated_conditions: read-out: KD2
readout: Kd (µM)
Numbers only; they are read as µM.

{"compound": "CC(C)(C)NC(=O)[C@@H]1C[C@@H]2CCCC[C@@H]2CN1C[C@@H](O)[C@H](Cc1ccccc1)NC(=O)[C@H](CC(N)=O)NC(=O)c1ccc2ccccc2n1", "Kd, µM": 301}

Which Kd value is on record for CC(=O)O[C@H]1C(=O)[C@@]2(C)C([C@H](OC(=O)c3ccccc3)[C@]3(O)C[C@H](OC(=O)[C@H](O)[C@@H](NC(=O)c4ccccc4)c4ccccc4)C(C)=C1C3(C)C)[C@]1(OC(C)=O)CO[C@@H]1C[C@@H]2OC(=O)CCC(=O)O (some centres undefined) ?
1170

Which Kd value is on record for CC(=O)O[C@@]1(C2/C(C)=C(/O)C(=O)C3=C(C)[C@@H](OC(=O)[C@H](O)[C@H](CC(C)C)NC(=O)OC(C)(C)C)C[C@@](O)([C@H]2OC(=O)c2ccccc2)C3(C)C)CO[C@@H]1CCO (some centres undefined) ?
1820

Which Kd value is on record for COC(=O)N[C@H](C(=O)N[C@@H](Cc1ccccc1)[C@@H](O)CN(Cc1ccc(-c2ccccn2)cc1)NC(=O)[C@@H](NC(=O)OC)C(C)(C)C)C(C)(C)C [ATAZANAVIR] ?
599
